What cell viability was measured for each of the following?
# System: MOLM14
# TEST_DESCRIPTION: cell viability relative to vehicle control; higher = less cytotoxic;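 further: after 48 h exposure read by CellTiter-Glo luminescence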
# SETTINGS: 10 µM; SRSF2 genotype: SRSF2 wt/wt
Counter-ions that a name gives are not always drawn.
Quick reminder: number only, in %, skip the unit.

Ask: Give its cell viability value. Item: Cc1cccc(C)c1N(CC(=O)Nc1ccc(-c2ncon2)cc1)C(=O)C1CCS(=O)(=O)CC1 [Amenamevir]
Reply: 105

Ask: Request: COc1ccc(C[C@@H]2c3cc(Oc4cc(C[C@@H]5c6cc(OC)c(OC)cc6CCN5C)ccc4O)c(OC)cc3CCN2C)cc1 [Neferine]
Reply: 109

Ask: Request: COCC(=O)Nc1cc(Sc2ccccc2)ccc1N=C(NC(=O)OC)NC(=O)OC [Febantel]
Reply: 110

Ask: Request: COc1cc2c(cc1O)C[C@H]1c3cc(O)c(OC)cc3CC[N@@+]1(C)C2 [Phellodendrine]
Reply: 102

Ask: Request: CC1(C)[C@@H](O[C@H]2O[C@H](C(=O)O)[C@@H](O)[C@H](O)[C@H]2O[C@@H]2O[C@H](C(=O)O)[C@@H](O)[C@H](O)[C@H]2O)CC[C@]2(C)[C@H]3C(=O)C=C4[C@@H]5C[C@@](C)(C(=O)O)CC[C@]5(C)CC[C@@]4(C)[C@]3(C)CC[C@@H]12 [Ammonium Glycyrrhizate]
Reply: 98.9

Ask: Request: "COc1ccc(CCC(=O)Nc2nc3ccc(Cl)cc3s2)cc1OC"
Reply: 97.8

Ask: Request: CC(=O)O[C@@]12CO[C@@H]1C[C@H](O)[C@@]1(C)C(=O)[C@H](O)C3=C(C)[C@@H](OC(=O)[C@H](O)[C@@H](NC(=O)OC(C)(C)C)c4ccccc4)C[C@@](O)([C@@H](OC(=O)c4ccccc4)[C@H]21)C3(C)C [Docetaxel (Taxotere)]
Reply: 4.57

Ask: Request: "O=C(O)c1ccc(O)c2ncccc12"
Reply: 102

Ask: Request: CCN(CC)C(=O)/C(C#N)=C/c1cc(O)c(O)c([N+](=O)[O-])c1 [Entacapone]
Reply: 102

Ask: Request: CCC1CC(=Cc2cccnc2)C(=O)C(=Cc2cccnc2)C1 (centres undefined)
Reply: 0.29

Ask: Request: OCC(CO)N[C@H]1C[C@](O)(CO)[C@@H](O)[C@H](O)[C@H]1O [Voglibose]
Reply: 97.5

Ask: Request: CC(COc1ccccc1)N(CCCl)Cc1ccccc1 (centres undefined) [Phenoxybenzamine HCl]
Reply: 62.7

Ask: Request: "C[C@H](NC(=O)c1c(N)nn2cccnc12)c1cc2cccc(C#Cc3cnn(C)c3)c2c(=O)n1-c1ccccc1"
Reply: 57.1

Ask: Request: N[C@@H](CC(=O)N1CCn2c(nnc2C(F)(F)F)C1)Cc1cc(F)c(F)cc1F [Sitagliptin phosphate monohydrate]
Reply: 103

Ask: Request: COC(=O)c1ccc(O)cc1 [Methyl 4-hydroxybenzoate]
Reply: 95.5

Ask: Request: C#C[C@]1(O)CC[C@H]2[C@@H]3CCc4cc(OC)ccc4[C@H]3CC[C@@]21C [Mestranol]
Reply: 99.9

Ask: Request: "COc1cccc(-c2cc(=O)c3ccccc3o2)c1N"
Reply: 109

Ask: Request: O=C1Cc2ccccc2N1 [Oxindole]
Reply: 98.9

Ask: Request: CN1CCN2c3ccccc3Cc3ccccc3C2C1 (centres undefined) [Mianserin HCl]
Reply: 97.8

Ask: Request: COc1cc2c(cc1O)CC[n+]1cc3c(OC)c(OC)ccc3cc1-2 [Jatrorrhizine chloride]
Reply: 90.5

Ask: Request: CN1CCC(=C2c3ccccc3CC(=O)c3sccc32)CC1 [Ketotifen fumarate (Zaditor)]
Reply: 101

Ask: Request: Cc1c(Nc2ncccc2C(=O)O)cccc1C(F)(F)F [Flunixin meglumin]
Reply: 89.4

Ask: Request: CCC(=O)O[C@H]1[C@H](O[C@@H]2[C@@H](C)[C@H](O[C@H]3C[C@@](C)(OC)[C@@H](O)[C@H](C)O3)[C@@H](C)C(=O)O[C@H](CC)[C@@](C)(O)[C@H](O)[C@@H](C)C(=O)[C@H](C)C[C@@]2(C)O)O[C@H](C)C[C@@H]1N(C)C [Erythromycin estolate]
Reply: 95.8

Ask: Request: CC(O)c1cc(C(=O)N[C@@H](C)Cn2ccc(-c3ccc(C#N)c(Cl)c3)n2)n[nH]1 (some centres undefined)
Reply: 98

###

What cell viability was measured for each of the following?
# System: MARIMO
# TEST_DESCRIPTION: cell viability relative to vehicle control; higher = less cytotoxic
# SETTINGS: 10 µM; SRSF2 genotype: SRSF2 P95H/wt
Counter-ions that a name gives are not always drawn.
Quick reminder: number only, in %, skip the unit.

Ask: Give its cell viability value. Item: "CC(C)n1c([C@H](C)Nc2ncnc(N)c2C#N)cc2cccc(-c3ccc(=O)n(C)c3)c2c1=O"
Reply: 46.7

Ask: Request: "CC(C)[C@H](C(=O)Nc1ccc(C(=O)NO)cc1)c1ccccc1"
Reply: 5.31

Ask: Request: "O=C(NO)c1cnc(NC2(c3ccccc3)CC2)nc1"
Reply: 3.94

Ask: Request: NC(=O)NO [Hydroxyurea (Cytodrox)]
Reply: 97.5

Ask: Request: CN(C)CCC(c1ccc(Cl)cc1)c1ccccn1 (configuration not stated) [Chlorpheniramine Maleate]
Reply: 91.4

Ask: Request: "Cc1ccc(NCCN(C)CCNc2ccnc3cc(Cl)ccc23)c2c(=O)c3ccccc3sc12"
Reply: 78

Ask: Request: O=C(c1ccccc1)c1ccc2n1CCC2C(=O)O (configuration not stated)
Reply: 100

Ask: Request: CCOC(=O)C1=C(COCCN)NC(C)=C(C(=O)OC)C1c1ccccc1Cl (configuration not stated) [Amlodipine besylate (Norvasc)]
Reply: 76.8

Ask: Request: "CCOCCn1c(C2CCN(CCc3ccc(C(C)(C)C(=O)O)cc3)CC2)nc2ccccc21"
Reply: 107

Ask: Request: "CCNc1nc(Nc2cc(F)c(C(=O)N3CCOCC3)cc2OC)ncc1C(F)(F)F"
Reply: 93.3

Ask: Request: COC(=O)[C@@]1(C)CC[C@]2(C(=O)O)CC[C@]3(C)C(=CC[C@@H]4[C@@]5(C)C[C@H](O)[C@H](O[C@@H]6OC[C@@H](O[C@@H]7O[C@H](CO)[C@@H](O)[C@H](O)[C@H]7O)[C@H](O)[C@H]6O)[C@@](C)(CO)[C@@H]5CC[C@]43C)[C@@H]2C1 [Esculentoside A]
Reply: 104

Ask: Request: "Cc1ccccc1N=Nc1ccc(NC(=O)c2ccnn2C)c(C)c1"
Reply: 82.3

###

# Test system: K562
# TEST_DESCRIPTION: cell viability relative to vehicle control; higher = less cytotoxic
# SETTINGS: 10 µM; SRSF2 genotype: SRSF2 wt/wt
Structures can show the parent of a compound that is named as a salt.
What cell viability was measured for each of the following?
Quick reminder: number only, in %, skip the unit.

Ask: Give its cell viability value. Item: Cc1[nH]c(/C=C2\C(=O)Nc3ccc(F)cc32)c(C)c1C(=O)NCCN1CCCC1 [Toceranib phosphate]
Reply: 94.5

Ask: Request: "CCN(CC)CCN(Cc1ccc(-c2ccc(C(F)(F)F)cc2)cc1)C(=O)Cn1c(SCc2ccc(F)cc2)nc(=O)c2c1CCC2"
Reply: 0.26

Ask: Request: "COc1ccc(Cn2c3ncnc4c(ncn4Cc4ccc(OC)cc4)c-3nc2=O)cc1"
Reply: 0.98

Ask: Request: "CCCCCCCCC/C(=C\C1=C(C)C(=O)C(OC)=C(OC)C1=O)C(=O)O"
Reply: 99.4

Ask: Request: CCC(C)C(NC(=O)C(C(C)CC)N(C)C(C)=O)C(=O)NC(C(=O)NC(CC(C)C)C(=O)C1(C)CO1)C(C)O (configuration not stated) [Epoxomicin (BU-4061T)]
Reply: 0.91

Ask: Request: CC(C)NCC(O)COc1ccc(CCOCC2CC2)cc1 (configuration not stated) [Betaxolol hydrochloride (Betoptic)]
Reply: 94.3

Ask: Request: CSCC1CN(/N=C/c2ccc([N+](=O)[O-])o2)C(=O)O1 (configuration not stated) [Nifuratel]
Reply: 78.8

Ask: Request: "COc1ccc(S(=O)(=O)NCc2ccc(C(=O)NCCc3ccc(Cl)cn3)cc2)cc1"
Reply: 81.6

Ask: Request: CCCNC(C)C(=O)Nc1ccccc1C (configuration not stated) [Prilocaine]
Reply: 86.8

Ask: Request: CC1OC(OC2C(OC3CCC4(C)C(CCC5(C)C4CC=C4C6CC(C)(C)CCC6(C(=O)OC6OC(COC7OC(CO)C(O)C(O)C7O)C(O)C(O)C6O)CCC45C)C3(C)CO)OCC(O)C2O)C(O)C(OC2OC(CO)C(O)C(O)C2O)C1O (configuration not stated) [Macranthoidin A]
Reply: 100

Ask: Request: "CC(C)n1nc(-c2ccc(NC(=O)Nc3cc(C(F)(F)F)ccc3F)cc2)c2c(N)ncnc21"
Reply: 19

Ask: Request: "CC1CCN(CC[C@H]2CCCN2S(=O)(=O)c2cccc(O)c2)CC1"
Reply: 95
